Cited source for all entries: ChEMBL document CHEMBL1138779

System: HCT-8
test method notes: Dose required for reduction in human ileocecal HCT-8 cancer cells after 3 day incubation
Type: functional
test settings: HCT-8, 72 h, read-out: ED50 (the source's name)
Grouping by measured EC50 is done with the following cut points: bottom end (below 3 µM), midrange (3 µM to below 60 µM), top end (60 µM or more)

{"compound": "COc1cc([C@@H]2c3cc4c(cc3[C@@H](Nc3ccc(C(=O)N[C@@H](C)C(=O)OCc5ccccc5)cc3)[C@H]3COC(=O)[C@H]23)OCO4)cc(OC)c1O", "group label": "bottom end"}
{"compound": "COc1cc([C@@H]2c3cc4c(cc3[C@@H](NC(=O)[C@@H](N)Cc3ccc(O)cc3)[C@H]3COC(=O)[C@H]23)OCO4)cc(OC)c1O", "group label": "top end"}
{"compound": "COC(=O)[C@H](Cc1c[nH]cn1)NC(=O)c1ccc(N[C@@H]2c3cc4c(cc3[C@@H](c3cc(OC)c(O)c(OC)c3)[C@H]3C(=O)OC[C@@H]32)OCO4)cc1", "group label": "top end"}
{"compound": "COC(=O)[C@H](CCSC)NC(=O)c1ccc(N[C@@H]2c3cc4c(cc3[C@@H](c3cc(OC)c(O)c(OC)c3)[C@H]3C(=O)OC[C@@H]32)OCO4)cc1", "group label": "midrange"}
{"compound": "COc1cc([C@@H]2c3cc4c(cc3[C@@H](Nc3ccc(C(=O)N[C@H](C)C(=O)OCc5ccccc5)cc3)[C@H]3COC(=O)[C@H]23)OCO4)cc(OC)c1O", "group label": "bottom end"}
{"compound": "COc1cc([C@@H]2c3cc4c(cc3[C@@H](O[C@@H]3O[C@@H]5CO[C@@H](C)O[C@H]5[C@H](O)[C@H]3O)[C@H]3COC(=O)[C@H]23)OCO4)cc(OC)c1O [ETOPOSIDE]", "group label": "top end"}
{"compound": "COC(=O)[C@@H](Cc1c[nH]c2ccccc12)NC(=O)c1ccc(N[C@@H]2c3cc4c(cc3[C@@H](c3cc(OC)c(O)c(OC)c3)[C@H]3C(=O)OC[C@@H]32)OCO4)cc1", "group label": "midrange"}
{"compound": "COc1cc([C@@H]2c3cc4c(cc3[C@@H](Nc3ccc(NC(=O)[C@@H](Cc5ccc(O)cc5)NC(=O)OCc5ccccc5)cc3)[C@H]3COC(=O)[C@H]23)OCO4)cc(OC)c1O", "group label": "top end"}
{"compound": "COc1cc([C@@H]2c3cc4c(cc3[C@@H](Nc3ccc(C(=O)NCC(=O)OCc5ccccc5)cc3)[C@H]3COC(=O)[C@H]23)OCO4)cc(OC)c1O", "group label": "midrange"}
{"compound": "COc1cc([C@@H]2c3cc4c(cc3[C@@H](NC(=O)[C@H](Cc3ccc(O)cc3)NC(=O)OCc3ccccc3)[C@H]3COC(=O)[C@H]23)OCO4)cc(OC)c1O", "group label": "top end"}
{"compound": "COC(=O)[C@H](Cc1ccccc1)NC(=O)c1ccc(N[C@@H]2c3cc4c(cc3[C@@H](c3cc(OC)c(O)c(OC)c3)[C@H]3C(=O)OC[C@@H]32)OCO4)cc1", "group label": "midrange"}

* * *

test system: DNA topoisomerase II (Homo sapiens) (UniProt P11388+Q02880)
test method notes: Percentage of protein-linked DNA breaks in KB cells by [3H]thymidine incorporation at 5 ug/mL
Assay type: functional, cell-based
Listed below: Activity values for each entry.
assay readout: Activity (%)

{"compound": "COc1cc([C@@H]2c3cc4c(cc3[C@@H](Nc3ccc(C(=O)NCCc5ccc(O)cc5)cc3)[C@H]3COC(=O)[C@H]23)OCO4)cc(OC)c1O", "assay readout": "Activity", "result number": 275}
{"compound": "COc1cc([C@@H]2c3cc4c(cc3[C@@H](Nc3ccc([N+](=O)[O-])cc3)[C@H]3COC(=O)[C@H]23)OCO4)cc(OC)c1O", "assay readout": "Activity", "result number": 218}
{"compound": "COc1cc([C@@H]2c3cc4c(cc3[C@@H](O[C@@H]3O[C@@H]5CO[C@@H](C)O[C@H]5[C@H](O)[C@H]3O)[C@H]3COC(=O)[C@H]23)OCO4)cc(OC)c1O [ETOPOSIDE]", "assay readout": "Activity", "result number": 100}
{"compound": "COc1cc([C@@H]2c3cc4c(cc3[C@@H](Nc3ccc(C(=O)NCCc5ccccc5)cc3)[C@H]3COC(=O)[C@H]23)OCO4)cc(OC)c1O", "assay readout": "Activity", "result number": 227}
